meta.source: ChEMBL document CHEMBL5338786

Listing of recorded pIC50 by entry.
test.target: Transient receptor potential cation channel subfamily A member 1 (Rattus norvegicus, UniProt Q6RI86)
Sequence (Q6RI86 whole entry): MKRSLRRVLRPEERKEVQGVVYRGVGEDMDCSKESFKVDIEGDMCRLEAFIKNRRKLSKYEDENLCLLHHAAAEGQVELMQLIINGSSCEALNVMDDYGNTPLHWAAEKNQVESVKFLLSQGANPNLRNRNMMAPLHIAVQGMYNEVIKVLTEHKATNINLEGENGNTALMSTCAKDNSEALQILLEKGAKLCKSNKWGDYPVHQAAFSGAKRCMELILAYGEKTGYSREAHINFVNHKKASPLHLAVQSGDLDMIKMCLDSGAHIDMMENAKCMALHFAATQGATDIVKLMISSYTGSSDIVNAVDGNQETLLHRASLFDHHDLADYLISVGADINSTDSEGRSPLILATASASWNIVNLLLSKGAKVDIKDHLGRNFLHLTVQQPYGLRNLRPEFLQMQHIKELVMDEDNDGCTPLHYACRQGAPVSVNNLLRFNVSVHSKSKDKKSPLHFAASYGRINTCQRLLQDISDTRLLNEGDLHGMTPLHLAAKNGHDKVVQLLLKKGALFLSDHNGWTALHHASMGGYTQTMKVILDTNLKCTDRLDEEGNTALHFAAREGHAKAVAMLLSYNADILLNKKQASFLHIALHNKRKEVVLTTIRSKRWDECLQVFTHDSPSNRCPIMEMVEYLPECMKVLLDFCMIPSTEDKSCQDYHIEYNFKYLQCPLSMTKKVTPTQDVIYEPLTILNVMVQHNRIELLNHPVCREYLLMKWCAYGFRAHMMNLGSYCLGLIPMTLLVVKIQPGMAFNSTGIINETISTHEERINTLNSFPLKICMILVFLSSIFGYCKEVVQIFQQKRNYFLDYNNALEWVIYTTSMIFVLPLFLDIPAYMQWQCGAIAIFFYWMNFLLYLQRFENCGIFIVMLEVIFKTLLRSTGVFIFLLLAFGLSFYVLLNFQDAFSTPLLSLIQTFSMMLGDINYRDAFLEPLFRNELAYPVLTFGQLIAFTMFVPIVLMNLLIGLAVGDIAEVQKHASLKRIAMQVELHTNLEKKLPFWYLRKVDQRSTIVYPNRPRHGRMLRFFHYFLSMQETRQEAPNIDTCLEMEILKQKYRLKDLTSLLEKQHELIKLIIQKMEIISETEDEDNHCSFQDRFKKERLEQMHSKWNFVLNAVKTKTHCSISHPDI
measurement.description: Antagonist activity at rat recombinant TRPA1 expressed in HEK293 cells assessed as desensitization by measuring inhibition of allyl isothiocyanate induced intracellular calcium accumulation preincubated for 5 mins followed by allyl isothiocyanate stimulation by Fluo4-AM based assay
pIC50: −log10 of the molar value.
property: pIC50

[[record]]
smiles_structure = "COc1ccc(CNC(=O)CCCc2ccc(I)s2)cc1"
measured = "< 4.00"

[[record]]
smiles_structure = "O=C(CCCc1ccccc1)NCc1ccccc1"
measured = "< 4.00"

[[record]]
smiles_structure = "COc1cc(CNC(=O)CCCc2ccc(-c3ccccc3)s2)ccc1O"
measured = 4.47

[[record]]
smiles_structure = "O=C(CCCc1ccc(I)s1)Nc1ccc(O)cc1"
measured = 4.36

[[record]]
smiles_structure = "O=C(CCCc1ccccc1)NCc1ccc(Cl)c(Cl)c1"
measured = 4.92

[[record]]
smiles_structure = "O=C(CCCc1ccc(-c2ccccc2)s1)NCc1ccc(Cl)c(Cl)c1"
measured = "< 4.30"

[[record]]
smiles_structure = "O=C(CCCc1ccc(-c2cccnc2)s1)NCc1ccc(Cl)c(Cl)c1"
measured = "< 4.30"

[[record]]
smiles_structure = "O=C(CCCc1ccc(-c2cccnc2)s1)NCc1ccc(O)cc1"
measured = "< 4.30"

[[record]]
smiles_structure = "COc1ccc(CNC(=O)CCCc2ccccc2)cc1"
measured = "< 4.00"

[[record]]
smiles_structure = "COc1cc(CNC(=O)CCCc2ccc(-c3cccnc3)s2)ccc1O"
measured = "< 4.00"

[[record]]
smiles_structure = "O=C(CCCc1ccc(-c2cccnc2)s1)NCCc1ccc(O)c(O)c1"
measured = "< 4.00"

[[record]]
smiles_structure = "COc1ccc(CNC(=O)CCCc2ccc(-c3cccnc3)s2)cc1"
measured = "< 4.30"

